# Test system: horse erythrocytes
# assay.comment: Hemolytic activity (hemoglobin release from erythrocytes)
# Format: cell-based
# setup.conditions: D-amino acid lipopeptides, 250 µM, TRIS buffer pH 7.2, 1 h, 37 °C, relative to melittin, ± confidence interval (α = 0.05)
assay.readout: Hemolysis (%) 250 µM
Output spec: scalar in %, unitless text.

compound	assay.readout	numeric.value
CCCCCC(=O)N[C@@H](CCCCN)C(=O)N[C@@H](CCCCN)C(=O)N[C@@H](CC(C)C)C(=O)N[C@H](Cc1ccccc1)C(=O)N[C@@H](CCCCN)C(=O)N[C@@H](CCCCN)C(=O)N[C@H](C(=O)N[C@@H](CC(C)C)C(=O)N[C@@H](CCCCN)C(=O)N[C@@H](Cc1ccc(O)cc1)C(=O)N[C@@H](CC(C)C)C(N)=O)[C@@H](C)CC [BP472, C5H11CO-KKLfKKILKYL-NH2]	Hemolysis (%) 250 µM	78
CCCC(=O)NCCCC[C@H](NC(=O)[C@H](CCCCN)NC(=O)[C@@H](Cc1ccccc1)NC(=O)[C@H](CC(C)C)NC(=O)[C@H](CCCCN)NC(=O)[C@H](CCCCN)NC(C)=O)C(=O)N[C@H](C(=O)N[C@@H](CC(C)C)C(=O)N[C@@H](CCCCN)C(=O)N[C@@H](Cc1ccc(O)cc1)C(=O)N[C@@H](CC(C)C)C(N)=O)[C@@H](C)CC	Hemolysis (%) 250 µM	84
CCCC(=O)NCCCC[C@H](NC(=O)[C@H](CC(C)C)NC(=O)[C@@H](NC(=O)[C@H](CCCCN)NC(=O)[C@H](CCCCN)NC(=O)[C@@H](Cc1ccccc1)NC(=O)[C@H](CC(C)C)NC(=O)[C@H](CCCCN)NC(=O)[C@H](CCCCN)NC(C)=O)[C@@H](C)CC)C(=O)N[C@@H](Cc1ccc(O)cc1)C(=O)N[C@@H](CC(C)C)C(N)=O	Hemolysis (%) 250 µM	11

Could you now look at the following compound, please?
Quick check: Hemolysis (%) 250 µM of `CCCC(=O)NCCCC[C@H](NC(=O)[C@H](CCCCN)NC(C)=O)C(=O)N[C@@H](CC(C)C)C(=O)N[C@H](Cc1ccccc1)C(=O)N[C@@H](CCCCN)C(=O)N[C@@H](CCCCN)C(=O)N[C@H](C(=O)N[C@@H](CC(C)C)C(=O)N[C@@H](CCCCN)C(=O)N[C@@H](Cc1ccc(O)cc1)C(=O)N[C@@H](CC(C)C)C(N)=O)[C@@H](C)CC` ?
14

Where these numbers come from: paper PMC8233901
